Would you kindly list self-cleavage for each of these variants?
B1: CPEB3 Ribozyme (parent)
chain: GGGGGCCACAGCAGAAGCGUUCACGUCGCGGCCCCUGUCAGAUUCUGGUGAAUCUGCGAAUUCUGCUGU

# Variants of: B1
# Measurement Notes: self-cleavage, relative activity (ratio to wild type); higher = more cleavage; co-transcriptional
Output: the number by itself.

Query :: Output self-cleavage of U55G G58C
Result :: 0.964

Query :: Check the records and state self-cleavage for G17A U69C
Result :: 0.883

Query :: State its self-cleavage: G30U U64G
Result :: 0.219

Query :: Tell us which self-cleavage value is on record for G1C U21C
Result :: 0.184

Query :: Specify self-cleavage for C7U U36A and stop.
Result :: 0.194

Query :: For A13U U46C , write its self-cleavage.
Result :: 0.873

Query :: Identify measured self-cleavage associated with A8C A60G
Result :: 0.953

Query :: Provide measured self-cleavage value, entry: U38C G58C
Result :: 0.929

Query :: Answer with the recorded self-cleavage for the variant listed here: C35U G58C
Result :: 0.878

Query :: Give reported self-cleavage value for C7A G28U
Result :: 0.128

Query :: Respond only with self-cleavage recorded for G30C C66G
Result :: 0.396

Query :: For the variant A23U A59G , give its measured self-cleavage value.
Result :: 0.972

Query :: Provide only the value of recorded self-cleavage for G14C U55C
Result :: 0.271

Query :: For the variant U46G U67A , report self-cleavage.
Result :: 0.99

Query :: Give self-cleavage for C6A C29U
Result :: 0.234

Query :: Output measured self-cleavage for this item: G2A C57U
Result :: 0.0401

Query :: Tell me self-cleavage reported for C63G G68A
Result :: 0.849

Query :: Using the record for C32U G47U , state its measured self-cleavage.
Result :: 1.01

Query :: Recall and state the measured self-cleavage for U20C G41C .
Result :: 0.139

Query :: State, in one line, measured self-cleavage of C12A C29U
Result :: 0.135

Query :: Return value of self-cleavage for input C29U G58A , no commentary.
Result :: 0.372

Query :: For the variant C32A C54G , give its measured self-cleavage value.
Result :: 0.333

Query :: Please give measured self-cleavage of the following entry: U20G G58A
Result :: 0.251

Query :: Look up and state reported self-cleavage for C12A A42C
Result :: 0.413

Query :: Note self-cleavage for the variant shown: G56C A60G
Result :: 0.608

Query :: Using known records, supply self-cleavage for C22U A52G
Result :: 0.379

Query :: Specify reported self-cleavage for the variant shown: C32U U61G
Result :: 0.829

Query :: Look up and report measured self-cleavage for this entry: C22G C35U
Result :: 0.208

Query :: Find the measured self-cleavage of C33A A60G and report it.
Result :: 0.378

Query :: Give self-cleavage for the following variant: C6A C57G
Result :: 0.22

Query :: Fill in self-cleavage for record C29U C35U
Result :: 0.314

Query :: Return self-cleavage (reported value) for this variant: A13C A59U
Result :: 0.479

Query :: Give self-cleavage for the following variant: G31C U49A
Result :: 0.286

Query :: Retrieve self-cleavage measured for G17A A51C and print it.
Result :: 0.452

Query :: Quick one: give measured self-cleavage for G14C G17A
Result :: 0.164

Query :: Return value of self-cleavage for input G31A A51C , no commentary.
Result :: 0.897

Query :: Read off the recorded self-cleavage for A23U G41C
Result :: 0.912

Query :: Hello, please tell me recorded self-cleavage for this one: G5U A23C
Result :: 0.211

Query :: Return self-cleavage for the following variant: G4A C35A
Result :: 0.175

Query :: Given A8C G25A , respond with its self-cleavage.
Result :: 0.148

Query :: Read off the recorded self-cleavage for U21A U64C
Result :: 0.874

Query :: Recall and state the measured self-cleavage for U46C U49A .
Result :: 0.996

Query :: # return recorded self-cleavage for input G5A U61G
Result :: 0.468

Query :: State its self-cleavage: G14U G30A
Result :: 0.288

Query :: Specify measured self-cleavage for G5C A40G .
Result :: 0.171

Query :: Give the measured self-cleavage for C33U U53A
Result :: 0.932

Query :: Identify measured self-cleavage associated with C33A U64A
Result :: 0.847

Query :: Please give the documented self-cleavage of G31A C45U
Result :: 0.888

Query :: Consider the variant G41A A52U . State its measured self-cleavage.
Result :: 0.683

Query :: Note self-cleavage for the variant shown: G2C G11A
Result :: 0.0352

Query :: Query self-cleavage for A42G C57U
Result :: 0.356

Query :: Input A40U A60U , output reported self-cleavage.
Result :: 0.41

Query :: # return recorded self-cleavage for entry C33A U43C
Result :: 0.461

Query :: Tell me measured self-cleavage for G50C A60C please.
Result :: 0.34

Query :: Identify self-cleavage associated with the variant A16C U44C
Result :: 0.178

Query :: Give the value of self-cleavage reported for the following: U43G A51C
Result :: 0.941

Query :: Give the value of self-cleavage reported for the following: C39G U46G
Result :: 0.907

Query :: Please supply the value of reported self-cleavage for the item C7G A42G
Result :: 0.306

Query :: Respond only with self-cleavage recorded for A23U U46A
Result :: 0.955

Query :: Write down self-cleavage measured for item G17U G65U
Result :: 0.292

Query :: Annotate the variant C32G U55G with its measured self-cleavage.
Result :: 0.218

Query :: Return the recorded self-cleavage value; entry: C34U G68C
Result :: 0.962

Query :: Give recorded self-cleavage. C63A U67A
Result :: 0.757

Query :: Give self-cleavage for G17A C35G
Result :: 0.179

Query :: Give self-cleavage for G58C C63A
Result :: 0.906

Query :: Query self-cleavage for A16G A59C
Result :: 0.417

Query :: Report self-cleavage for C12U C57G
Result :: 0.31

Query :: Answer with the recorded self-cleavage of G48U A51C only.
Result :: 0.978

Query :: Identify measured self-cleavage corresponding to C6G C45U
Result :: 0.362

Query :: Find the measured self-cleavage of C18U U43C and report it.
Result :: 0.768

Query :: Indicate its recorded self-cleavage; the variant in question is A16U C39A
Result :: 0.317

Query :: Answer with reported self-cleavage of U21A G68C
Result :: 1.02

Query :: Please give measured self-cleavage of the following entry: G11C G14U
Result :: 0.172

Query :: Read off the recorded self-cleavage for G14C U46C
Result :: 0.48

Query :: For the variant C12A G48C , report self-cleavage.
Result :: 0.771

Query :: Supply self-cleavage value. Item: G4U G65A
Result :: 0.521

Query :: Look up and report measured self-cleavage for this entry: C29U U38G
Result :: 0.238

Query :: State, in one line, measured self-cleavage of C24G C66G
Result :: 0.28

Query :: Tell me its self-cleavage given A40C G58C as the entry.
Result :: 0.776

Query :: Note self-cleavage for the variant shown: C18G G50U
Result :: 0.143

Query :: Give reported self-cleavage value for C22G A51U
Result :: 0.163

Query :: Indicate its recorded self-cleavage; the variant in question is C34U C39A
Result :: 0.834

Data provenance is the RNAGym collection of RNA variant scans (doi:10.7554/elife.80360).
